From: patent US9925193B2

Entries and their IC50 values follow.
- Subject of test: SRC (Homo sapiens, UniProt P12931)
- Sequence (P12931 whole entry): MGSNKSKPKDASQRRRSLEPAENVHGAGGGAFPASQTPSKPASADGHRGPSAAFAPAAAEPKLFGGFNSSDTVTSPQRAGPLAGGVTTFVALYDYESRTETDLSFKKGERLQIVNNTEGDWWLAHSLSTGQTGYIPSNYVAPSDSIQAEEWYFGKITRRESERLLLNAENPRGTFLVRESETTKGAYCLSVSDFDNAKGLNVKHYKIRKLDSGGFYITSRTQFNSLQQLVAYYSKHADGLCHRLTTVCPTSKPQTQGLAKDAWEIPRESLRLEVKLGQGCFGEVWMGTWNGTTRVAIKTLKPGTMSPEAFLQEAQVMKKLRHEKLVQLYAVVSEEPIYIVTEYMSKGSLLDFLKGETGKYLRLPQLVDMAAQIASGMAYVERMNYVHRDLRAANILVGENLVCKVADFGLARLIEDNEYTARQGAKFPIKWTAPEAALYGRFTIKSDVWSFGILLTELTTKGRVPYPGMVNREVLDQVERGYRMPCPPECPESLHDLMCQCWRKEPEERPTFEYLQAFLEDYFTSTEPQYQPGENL
- Protocol text: 33PanQinase Activity Assay, SRC
- Conditions used: recombinant human protein kinase, 1 μM [γ-33P]-ATP, 30° C. 80 minutes

Mol smiles	IC50
COc1ccc(-c2cc3ncnc(Sc4nnc(-c5ccc(Cl)cc5Cl)o4)c3s2)cc1	0.8 µM
COc1ccc(-c2cc3nc(N)nc(Sc4nnc(-c5ccc(Cl)cc5)o4)c3s2)cc1	0.65 µM
COc1ccc(-c2cc3ncnc(Sc4nnc(-c5ccccc5C)o4)c3s2)cc1	0.68 µM
